measurement.target: human 5-HT2C(VSV) (Homo sapiens, UniProt P28335, I156V/I160V/N158S)
Sequence (P28335 33-458 I156V/N158S/I160V limits assumed): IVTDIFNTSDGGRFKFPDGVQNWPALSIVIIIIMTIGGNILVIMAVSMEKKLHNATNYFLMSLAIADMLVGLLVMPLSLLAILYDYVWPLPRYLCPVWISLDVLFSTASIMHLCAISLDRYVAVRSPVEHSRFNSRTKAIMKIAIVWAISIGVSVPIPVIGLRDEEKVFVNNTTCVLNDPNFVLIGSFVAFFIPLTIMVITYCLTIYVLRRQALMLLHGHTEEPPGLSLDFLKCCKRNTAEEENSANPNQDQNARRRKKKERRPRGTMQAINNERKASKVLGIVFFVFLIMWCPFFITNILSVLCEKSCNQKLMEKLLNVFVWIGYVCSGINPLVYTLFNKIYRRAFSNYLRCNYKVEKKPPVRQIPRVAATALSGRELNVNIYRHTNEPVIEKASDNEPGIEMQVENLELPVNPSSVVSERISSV
assay.protocol: cell-based
pEC50: −log10 of the molar value.
readout.label: pEC50

Prompt line: Consider the molecule CCn1cc(CCNCC(C)c2ccccc2)c2c(O)cc(F)cc21 (stereo not drawn) [39-6] and give its measured pEC50.
Response line: 6.30 to 9.00

Prompt line: Consider the molecule CCOc1c(F)ccc2c1c(CCNCc1ccc3c(c1)OCO3)cn2C [30-18] and give its measured pEC50.
Response line: 6.30 to 9.00

Prompt line: Consider the molecule COc1ccc(-c2ccoc2)c2c1c(CCN(C)C)cn2C [6-9] and give its measured pEC50.
Response line: 5.00 to 6.30

Prompt line: Consider the molecule CCCn1cc(CCNC)c2c(OCc3cccc4ccccc34)c(F)ccc21 [33-39] and give its measured pEC50.
Response line: 6.30 to 9.00

Prompt line: Consider the molecule CNCCc1cn(C)c2ccc(F)c(OCc3cccc(C(F)(F)F)c3)c12 [33-21] and give its measured pEC50.
Response line: 6.30 to 9.00

Prompt line: Consider the molecule CCOc1c(F)ccc2c1c(CCNCc1ccccc1)cn2C [30-15] and give its measured pEC50.
Response line: 6.30 to 9.00

Prompt line: Consider the molecule CCOc1c(F)ccc2c1c(CCNCCc1ccc3c(c1)OCO3)cn2C [30-26] and give its measured pEC50.
Response line: 6.30 to 9.00

Prompt line: Consider the molecule COc1c(F)ccc2c1c(CCN1CCN(c3cccc(Cl)c3)CC1)cn2C [17-15] and give its measured pEC50.
Response line: 6.30 to 9.00

Prompt line: Consider the molecule CCn1cc(CCNCCc2ccccc2)c2c(OC)ccc(F)c21 [20-7] and give its measured pEC50.
Response line: 6.30 to 9.00

Prompt line: Consider the molecule CCn1cc(CCN2C[C@@H](C)O[C@@H](C)C2)c2c(O)cc(F)cc21 [11-13] and give its measured pEC50.
Response line: 5.00 to 6.30

Prompt line: Consider the molecule COc1c(F)ccc2c1c(CCN[C@@H]1CCCc3ccccc31)cn2C [17-17] and give its measured pEC50.
Response line: 6.30 to 9.00

Prompt line: Consider the molecule COc1ccc(-c2ccc[nH]2)c2c1c(CCN(C)C)cn2C [6-10] and give its measured pEC50.
Response line: 5.00 to 6.30

Prompt line: Consider the molecule COc1c(F)ccc2c1c(CCN1CCN(c3ccccc3)CC1)cn2C [17-14] and give its measured pEC50.
Response line: 5.00 to 6.30

Prompt line: Consider the molecule CCOc1c(F)ccc2c1c(CCNCCc1ccccn1)cn2C [30-27] and give its measured pEC50.
Response line: 6.30 to 9.00

Prompt line: Consider the molecule CNCCc1cn(C)c2ccc(F)c(OCCOc3ccccc3)c12 [33-14] and give its measured pEC50.
Response line: 6.30 to 9.00

* * *

Please provide measured EC50 for the entries that follow.
measurement.target: human 5-HT2C(VSV) (Homo sapiens, UniProt P28335, I156V/I160V/N158S)
assay.protocol: cell-based

Prompt line: Consider the molecule `CCn1cc(C2=CCNCC2)c2c(OCc3ccccc3)cc(F)cc21` and give its measured EC50.
Response line: 500 to 10000 nM

Prompt line: Consider the molecule `CCn1cc(CCNCCOC)c2c(O)cc(F)cc21` and give its measured EC50.
Response line: 1 to 500 nM

Prompt line: Consider the molecule `CCOc1c(F)ccc2c1c(CCNCc1cccc(C(F)(F)F)c1)cn2C` and give its measured EC50.
Response line: 1 to 500 nM

Prompt line: Consider the molecule `CN(CCc1cn(C)c2ccc(F)c(OCc3ccccc3C#N)c12)Cc1ccccc1C#N` and give its measured EC50.
Response line: 500 to 10000 nM

Prompt line: Consider the molecule `COc1cc(F)cc2c1c(CCN(C)C)cn2S(=O)(=O)c1ccccc1` and give its measured EC50.
Response line: 500 to 10000 nM

Prompt line: Consider the molecule `CCn1cc(CCNCc2cccc(Cl)c2)c2c(OCc3ccccc3)cc(F)cc21` and give its measured EC50.
Response line: 500 to 10000 nM

Prompt line: Consider the molecule CCn1cc(CCN(C)C)c2c(OCc3ccc(OC(F)(F)F)cc3)cc(F)cc21 [1-11b] and give its measured EC50.
Response line: 500 to 10000 nM

Prompt line: Consider the molecule `CNCCc1cn(C)c2ccc(F)c(OCc3cccc4cccnc34)c12` and give its measured EC50.
Response line: 1 to 500 nM

Prompt line: Consider the molecule `CCn1cc(CCN(C)C)c2c(OC)cc(-c3ccccc3)cc21` and give its measured EC50.
Response line: 500 to 10000 nM

Prompt line: Consider the molecule `NCCc1cn(CC(N)=O)c2ccc(F)c(O)c12` and give its measured EC50.
Response line: < 10000 nM

Prompt line: Consider the molecule `COc1ccc(C#CCO)c2c1c(CCN(C)C)cn2C` and give its measured EC50.
Response line: 1 to 500 nM

Prompt line: Consider the molecule `COc1c(F)ccc2c1c(CCN1CCNCC1)cn2C` and give its measured EC50.
Response line: 500 to 10000 nM
